# credit: patent US20260217701A1

Recorded pIC50 by entry
targetOrSystem: BRD4 BD2 (Homo sapiens, UniProt O60885)
Construct: HEK293 cells were transfected using NanoLuc-BRD4-BD1 or NanoLuc-BRD4-BD2 fusion vectors
measurementDescription: NanoBRET bromodomain assay, NanoLuc-BRD4-BD2 in HEK293 cells
pIC50: −log10 of the molar value.

# count of solved cases: 4
molecule	metricName	measuredValue
CSCc1ccc(-c2cn(C)c(=O)cc2-c2cn(C)c(=O)c3[nH]c(-c4cnn(C(F)(F)F)c4)cc23)cc1	pIC50	> 8.00
Cc1cccc(C)c1Oc1cn(C2CC2)c(=O)cc1-c1cn(C)c(=O)c2[nH]c(-c3cccc(F)c3F)cc12	pIC50	< 6.00
Cc1cccc(C)c1Oc1cn(C)c(=O)cc1-c1cn(C)c(=O)c2[nH]c(-c3ccc(OC(F)F)cc3F)cc12	pIC50	7.30 to 8.00
Cc1cccc(C)c1Oc1cn(C)c(=O)cc1-c1cn(C)c(=O)c2[nH]c(-c3cnn(C(F)F)c3)cc12	pIC50	7.30 to 8.00

Entry Cn1cc(-c2ccccc2)c(-c2cn(C)c(=O)c3[nH]c(-c4ccc(F)c(C(C)(C)O)c4)cc23)cc1=O , pIC50 reported as > 8.00

pIC50 reported for this compound Cc1cccc(C)c1Oc1cn(C)c(=O)cc1-c1cn(C)c(=O)c2[nH]c(-c3ccc(CO)cc3F)cc12 : > 8.00

response.value for Cn1cc(-c2ccc(COC(F)(F)F)cc2)c(-c2cn(C)c(=O)c3[nH]c(-c4cnn(C(F)(F)F)c4)cc23)cc1=O (field: pIC50) = > 8.00

###

measurementDescription: Dog PK study #3 (Compound A PO once daily 5 days, 5/10/20 mg/kg; PK, body weight, hematology)
Assay type: in vivo, beagle dogs
conditionSummary: male, beagle, dog, plasma, po, 5 mg/kg, Day 1, 5 mg/kg dose PO; mean
metricName: AUC(0-t) (ng·h/mL)
State just the number; it will be interpreted in ng·h/mL.

Given item Cn1cc(-c2ccccc2)c(-c2cn(C)c(=O)c3[nH]c(-c4cnn(C(F)(F)F)c4)cc23)cc1=O , the value recorded as its AUC(0-t) is 9500

###

measurementDescription: Rat PK study #3 (ABBV-744 IV 1 mg/kg and PO 5 mg/kg)
Type: in vivo, SD rats
conditionSummary: male, Sprague-Dawley, rat, plasma, iv, 1 mg/kg, SD rats, IV 1 mg/kg, DMSO/PEG-400/Milli-Q water formulation, individual animals; read-out: MRTInf_obs
metricName: MRT inf
Write the quantity with the unit trailing the number.

Entry CCNC(=O)c1cc2c(-c3cc(C(C)(C)O)ccc3Oc3c(C)cc(F)cc3C)cn(C)c(=O)c2[nH]1 [ABBV-744] , MRT inf reported as 2.47 h

###

measurementDescription: Dog PK study #3 (Compound A PO once daily 5 days, 5/10/20 mg/kg; PK, body weight, hematology)
Assay type: in vivo, beagle dogs
conditionSummary: male, beagle, dog, plasma, po, 5 mg/kg, Day 1, 5 mg/kg dose PO; mean; read-out: MRT0-last
metricName: MRT last
Put down the number, then write its unit next to it.

Form field MRT last, entry Cn1cc(-c2ccccc2)c(-c2cn(C)c(=O)c3[nH]c(-c4cnn(C(F)(F)F)c4)cc23)cc1=O : 8.8 h
